Biological target: T1, Macaca fascicularis PDGFRb.mmh (Macaca fascicularis)
T1 construct: Soluble monomeric construct; also called mfPDGFRb.mmh
T1 chain: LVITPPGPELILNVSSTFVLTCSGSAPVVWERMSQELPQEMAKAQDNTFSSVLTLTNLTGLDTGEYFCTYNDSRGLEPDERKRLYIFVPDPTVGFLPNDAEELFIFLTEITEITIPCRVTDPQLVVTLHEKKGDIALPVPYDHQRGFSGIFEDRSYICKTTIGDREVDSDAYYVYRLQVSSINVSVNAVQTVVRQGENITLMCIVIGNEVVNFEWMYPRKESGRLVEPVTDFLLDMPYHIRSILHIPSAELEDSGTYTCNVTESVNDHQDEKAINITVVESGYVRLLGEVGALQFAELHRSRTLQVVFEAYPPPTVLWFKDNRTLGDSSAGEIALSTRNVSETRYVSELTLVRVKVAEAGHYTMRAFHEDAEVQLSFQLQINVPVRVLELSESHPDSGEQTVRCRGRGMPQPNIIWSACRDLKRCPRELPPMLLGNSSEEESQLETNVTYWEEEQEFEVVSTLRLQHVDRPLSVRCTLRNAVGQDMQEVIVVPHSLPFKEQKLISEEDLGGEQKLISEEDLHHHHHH
Assay: SPR, mAb captured, 25 C
Could you please report measured pKd for the items listed next?
Answers are plain numbers, as −log10 of the molar value.

Answered examples (8):
1. H4H3096S (antibody, human IgG4, V domains shown, human IgG4 Fc (H4H prefix)) VH: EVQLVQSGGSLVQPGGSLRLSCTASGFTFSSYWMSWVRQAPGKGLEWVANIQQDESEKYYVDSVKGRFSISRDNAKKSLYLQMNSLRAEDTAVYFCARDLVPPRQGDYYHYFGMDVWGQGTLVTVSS VL: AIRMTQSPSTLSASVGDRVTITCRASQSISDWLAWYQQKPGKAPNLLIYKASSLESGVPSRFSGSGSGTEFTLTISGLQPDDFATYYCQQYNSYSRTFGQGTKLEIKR: 8.19
2. H1M3374N (antibody, V domains shown, mouse Fc format; also called H2M3374N) VH: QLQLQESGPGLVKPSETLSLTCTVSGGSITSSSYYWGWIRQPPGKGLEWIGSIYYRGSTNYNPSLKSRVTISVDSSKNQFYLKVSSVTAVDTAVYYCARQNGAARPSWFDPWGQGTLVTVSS VL: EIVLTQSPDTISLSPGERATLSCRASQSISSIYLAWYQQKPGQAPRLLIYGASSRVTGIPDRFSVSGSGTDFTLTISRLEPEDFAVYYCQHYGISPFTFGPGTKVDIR: 8.57
3. H4H3094P (antibody, human IgG4, V domains shown, also called H4H3394P) VH: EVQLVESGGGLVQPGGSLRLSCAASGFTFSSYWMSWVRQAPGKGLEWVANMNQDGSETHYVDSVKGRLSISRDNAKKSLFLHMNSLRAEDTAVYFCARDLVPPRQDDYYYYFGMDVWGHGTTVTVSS VL: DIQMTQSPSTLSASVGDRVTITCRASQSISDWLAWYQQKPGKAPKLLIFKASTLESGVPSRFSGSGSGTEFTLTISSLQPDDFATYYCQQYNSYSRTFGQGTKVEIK: 8.79
4. H4H3106S (antibody, human IgG4, V domains shown, human IgG4 Fc (H4H prefix)) VH: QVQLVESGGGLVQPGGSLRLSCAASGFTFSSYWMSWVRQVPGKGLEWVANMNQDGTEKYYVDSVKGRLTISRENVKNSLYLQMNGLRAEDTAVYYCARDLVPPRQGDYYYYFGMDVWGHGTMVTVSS VL: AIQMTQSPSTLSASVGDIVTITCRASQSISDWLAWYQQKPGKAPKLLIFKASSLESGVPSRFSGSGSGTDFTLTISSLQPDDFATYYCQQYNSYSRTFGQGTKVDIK: 8.33
5. H2M3368N (antibody, V domains shown, mouse Fc (H2M prefix; isotype not spelled out)) VH: QVQLQQWGAGLLKPSETLSLTCAVYGGSFSGYYWTWIRQSPGKGLEWMGEISHRGTTNYNPSLKSRLTISLDTSNNHFSLKLSSVTAADTAVYYCAREERLGMGYDYFGLDVWGQGTTVTVSS VL: EIVLTQSPATLSLSPGERATLSCRASQSVSTYLTWYQQKPGQAPRLLIYDASNRATGIPARFSGSGSGTDFTLTISSLEPEDCAVYYCQQRSIWITFGQGTRLEIK: 7.52
6. H1M3361N (antibody, mouse IgG1, V domains shown, mouse IgG1 Fc (H1M prefix)) VH: EVQLVESGGGLVQPGGSLRLSCAASGFTFSSYWMTWVRQAPGKGLEWVANIRQDGSDKYYVDSVKGRFTISRDNAKNSLFLQMNSLRAEDTAVYYCARTNGGTYGYNHYYYGMDVWGQGTTVTVSS VL: DIQMTQSPSSLSASVGDRVTITCRASQGIRNDLGWYQLKPGKAPKRLIFAASSLQSGVPSRFSGSGSGTEFTLTISSLQPEDFATYYCLQHNSYPWTFGQGTKVEIK: 8.41
7. H4H3102S (antibody, human IgG4, V domains shown, human IgG4 Fc (H4H prefix)) VH: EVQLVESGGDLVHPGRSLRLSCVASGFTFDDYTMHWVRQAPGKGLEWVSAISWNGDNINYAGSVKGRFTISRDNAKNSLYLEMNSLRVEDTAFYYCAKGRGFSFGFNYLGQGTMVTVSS VL: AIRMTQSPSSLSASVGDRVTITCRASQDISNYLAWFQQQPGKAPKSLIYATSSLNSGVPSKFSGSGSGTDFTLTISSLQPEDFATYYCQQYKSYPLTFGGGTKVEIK: 8.76
8. H4H3105S (antibody, human IgG4, V domains shown, human IgG4 Fc (H4H prefix)) VH: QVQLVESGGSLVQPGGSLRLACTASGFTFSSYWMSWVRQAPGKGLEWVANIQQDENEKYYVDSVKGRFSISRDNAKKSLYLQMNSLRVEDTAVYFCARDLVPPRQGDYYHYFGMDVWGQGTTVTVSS VL: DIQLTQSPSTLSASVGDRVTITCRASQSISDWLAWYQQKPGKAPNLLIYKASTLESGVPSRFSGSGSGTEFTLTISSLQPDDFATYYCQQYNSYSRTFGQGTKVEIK: 8.28

# return pKd for each item in the list
1. H2M3373N (antibody, V domains shown, mouse Fc (H2M prefix; isotype not spelled out)) VH: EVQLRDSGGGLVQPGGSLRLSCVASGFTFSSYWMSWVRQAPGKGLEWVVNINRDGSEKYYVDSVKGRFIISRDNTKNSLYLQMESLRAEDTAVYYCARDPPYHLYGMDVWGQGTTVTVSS VL: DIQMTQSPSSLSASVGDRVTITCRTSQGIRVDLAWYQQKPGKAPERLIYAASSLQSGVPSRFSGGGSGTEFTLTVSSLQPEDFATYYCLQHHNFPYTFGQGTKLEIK
2. H4H3098S (antibody, human IgG4, V domains shown, human IgG4 Fc (H4H prefix)) VH: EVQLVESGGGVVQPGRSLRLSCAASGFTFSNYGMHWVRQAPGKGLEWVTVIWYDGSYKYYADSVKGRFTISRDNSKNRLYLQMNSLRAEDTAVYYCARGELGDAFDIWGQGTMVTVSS VL: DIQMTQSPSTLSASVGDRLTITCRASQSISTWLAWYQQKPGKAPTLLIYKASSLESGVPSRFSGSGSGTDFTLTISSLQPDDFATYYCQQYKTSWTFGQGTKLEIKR

[7.74, 7.16]
